Hi there, I'd appreciate the recorded IC50 for every entry that follows.
- tested-on: Human HDAC9 (Homo sapiens, UniProt Q9UKV0)
- Construct: amino acids 604-1066 with C-terminal His tag; His (C); host or cells: baculovirus expression system
- Sequence (Q9UKV0 604-1066 isoform Q9UKV0-5): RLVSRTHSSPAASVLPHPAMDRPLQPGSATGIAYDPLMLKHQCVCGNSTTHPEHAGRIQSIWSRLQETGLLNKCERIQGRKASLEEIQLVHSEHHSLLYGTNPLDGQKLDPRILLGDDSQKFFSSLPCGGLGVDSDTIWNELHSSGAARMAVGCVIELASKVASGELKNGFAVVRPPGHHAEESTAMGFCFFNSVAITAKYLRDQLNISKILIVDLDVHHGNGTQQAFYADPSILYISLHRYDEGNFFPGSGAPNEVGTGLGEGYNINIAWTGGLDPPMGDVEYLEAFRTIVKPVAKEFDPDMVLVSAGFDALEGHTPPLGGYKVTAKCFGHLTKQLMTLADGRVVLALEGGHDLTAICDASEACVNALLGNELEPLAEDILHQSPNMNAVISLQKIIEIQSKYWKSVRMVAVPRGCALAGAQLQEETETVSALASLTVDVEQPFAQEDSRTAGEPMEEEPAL
- assay-notes: HDAC9 biochemical assay, class IIa-specific substrate
- protocol-conditions: read-out: HDAC Isoform IC50 (nM) 9

Consider the worked cases shown below.
compound	experimental-result
O=C(c1cnnc(N(Cc2ccc(-c3noc(C(F)(F)F)n3)s2)c2cnccn2)c1)N1C[C@@H]2C[C@H]1CO2 [Example FV]	≤ 10000 nM
O=C(c1ccc(N(Cc2ccc(-c3noc(C(F)(F)F)n3)s2)c2cnccn2)nn1)N1CCC1 [Example FF]	≤ 1000 nM
O=C(c1cnnc(N(Cc2ccc(-c3noc(C(F)(F)F)n3)s2)c2cnccn2)c1)N1CC(O)(C(F)(F)F)C1 [Example GD]	≤ 10000 nM
FC(F)(F)c1nc(-c2ccc(CN(c3cnccn3)c3cc(N4CCCC4)cnn3)s2)no1 [Example FQ]	≤ 10000 nM

Report IC50 for every entry below.
1. O=C(c1ccc(N(Cc2ccc(-c3noc(C(F)(F)F)n3)s2)c2cnccn2)nn1)N1CCC2(COC2)C1 [Example FJ]
2. CN(C)C1CN(C(=O)c2cnnc(N(Cc3ccc(-c4noc(C(F)(F)F)n4)s3)c3cnccn3)c2)C1 [Example FX]

Reply |
≤ 1000 nM
≤ 10000 nM

Ask | Can you share its IC50? I mean this compound: FC(F)(F)c1cnnc(N(Cc2ccc(-c3noc(C(F)(F)F)n3)s2)c2cc(C(F)(F)F)cnn2)c1 [Example EU]
Reply | > 10000 nM
